test summary: Cytotoxicity against African green monkey Vero cells assessed as reduction in cell viability incubated for 22 hrs by XTT assay
Assay type: toxicity, cell-based
condition context: chlorocebus sabaeus
measurement label: CC50 at 22 h

Exercise: Entry COc1ccc(Cn2c3ncnc4c(ncn4Cc4ccc(OC)cc4)c-3nc2=O)cc1 needs its CC50 at 22 h filled in; supply it.
Solution: 29.7 µM

###

assayed system: ATP-dependent RNA helicase DDX3X (Homo sapiens, UniProt O00571)
Sequence (O00571 whole entry): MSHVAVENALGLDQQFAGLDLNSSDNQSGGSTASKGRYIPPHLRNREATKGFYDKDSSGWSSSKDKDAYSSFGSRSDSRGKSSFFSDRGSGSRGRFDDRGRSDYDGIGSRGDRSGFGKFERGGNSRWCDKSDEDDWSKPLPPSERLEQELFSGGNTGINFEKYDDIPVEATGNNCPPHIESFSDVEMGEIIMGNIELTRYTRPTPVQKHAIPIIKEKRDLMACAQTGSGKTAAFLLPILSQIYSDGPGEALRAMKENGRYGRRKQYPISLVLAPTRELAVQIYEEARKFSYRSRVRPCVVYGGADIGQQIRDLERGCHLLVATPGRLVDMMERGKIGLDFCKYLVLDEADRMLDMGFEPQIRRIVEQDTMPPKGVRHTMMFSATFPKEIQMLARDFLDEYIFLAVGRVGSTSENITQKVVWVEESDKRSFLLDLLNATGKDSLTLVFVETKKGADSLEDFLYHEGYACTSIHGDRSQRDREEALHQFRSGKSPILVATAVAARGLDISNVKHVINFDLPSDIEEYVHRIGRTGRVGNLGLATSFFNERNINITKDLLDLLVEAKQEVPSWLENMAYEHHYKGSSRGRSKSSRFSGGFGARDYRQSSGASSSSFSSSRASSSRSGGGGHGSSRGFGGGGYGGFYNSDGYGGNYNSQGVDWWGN
test summary: Binding affinity to DDX3X (unknown origin) assessed as inhibition constant
measurement label: pKi
One number for each entry, as −log10 of the molar value.

Observe how each entry below is paired with its result.
O=[N+]([O-])c1cccc(/C=N/Nc2nc(NCc3ccccc3)nc(NNc3ccc(F)cc3)n2)c1O = 5.40
Cc1cccc(NC(=O)CCN2C(=O)/C(=C/c3ccccc3O)SC2=S)c1 = 4.01
CC(=O)Nc1ccc(/C=N/Nc2nc(NCc3ccccc3)nc(Nc3ccccc3)n2)cc1 = 6.30
C(=N\Nc1nc(Nc2ccccc2)nc(Nc2ccccc2)n1)/c1ccccc1 = 5.12

Then there is this molecule:
Exercise: Entry O=C(CCN1C(=O)/C(=C/c2ccccc2O)SC1=S)Nc1cc(F)cc(F)c1 needs its pKi filled in; supply it.
Solution: 6.30

###

test summary: Selectivity index, ratio of CC50 for human H9 cells to EC50 for HIV-1 NL4-3 infected in human H9 cells
Format: toxicity, cell-based
condition context: read-out: Ratio CC50/EC50
measurement label: selectivity ratio
Numbers only.

Exercise: Entry O=C(O)c1ccccc1C(=O)Nc1nnc(-c2ccc(O)cc2)s1 needs its selectivity ratio filled in; supply it.
Solution: 45

###

test summary: Selectivity index, ratio of CC50 for African green monkey Vero cells to EC50 for WNV infected in African green monkey Vero cells
Assay type: toxicity
condition context: read-out: Ratio CC50/EC50
measurement label: selectivity ratio
Give bare numbers.

Exercise: Entry COc1ccc(Cn2c3ncnc4c(ncn4Cc4ccc(OC)cc4)c-3nc2=O)cc1 needs its selectivity ratio filled in; supply it.
Solution: 3.5

###

test summary: Selectivity index, ratio of CC50 for hepatoma cells (unknown origin) to EC50 for HCV-1 infected in hepatoma cells (unknown origin)
Format: toxicity, cell-based
condition context: read-out: Ratio CC50/EC50
measurement label: selectivity ratio

CCCCCCCCCCCCCCCCCCNC1=NC(=O)C2C(N=CN2[C@@H]2O[C@H](CO)[C@@H](O)[C@H]2O)C(=O)N1 (some centres not stated) = > 35

Then there is this compound:
Exercise: Entry CCCCc1cn(-c2ccc(NC(=O)Nc3ccccc3C)cc2)nn1 needs its selectivity ratio filled in; supply it.
Solution: > 200

###

Would you kindly list selectivity ratio for each of these compounds?
test summary: Selectivity index, ratio of CC50 for human LucUbiNeo-ET cells to EC50 for HCV-1 infected in human LucUbiNeo-ET cells
Assay type: toxicity, cell-based
condition context: read-out: Ratio CC50/EC50
Give bare numbers.

CCCCc1cn(-c2ccc(NC(=O)Nc3ccccc3C)cc2)nn1 = 51

Then there is this compound:
Exercise: Entry CC(C)Cc1cn(-c2ccc(NC(=O)Nc3ccc4cnccc4c3)cc2)nn1 needs its selectivity ratio filled in; supply it.
Solution: 94

###

assayed system: UniProt O00571
test summary: Binding affinity to DDX3X (unknown origin) assessed as inhibition constant
measurement label: Ki (µM)
One number for each entry, in µM.

Observe how each entry below is paired with its result.
Oc1ccc(Cl)cc1/C=N/Nc1nc(NCc2ccccc2)nc(NN2CCOCC2)n1 = 1.9
Oc1ccccc1/C=N/Nc1nc(NCc2ccc(F)cc2)nc(NN2CCOCC2)n1 = 0.7
Oc1ccccc1/C=N/Nc1nc(Nc2cccc(Cl)c2)nc(NN2CCOCC2)n1 = 0.4
COc1cc(/C=C2\SC(=S)N(CCC(=O)Nc3ccccc3O)C2=O)cc(OC)c1OC = 3.9
Cc1ccc(Nc2nc(N/N=C/c3ccccc3O)nc(NN3CCOCC3)n2)cc1Cl = 1.6
O=C(CCN1C(=O)/C(=C/c2ccc3c(c2)OCO3)SC1=S)Nc1ccccc1[N+](=O)[O-] = 1
COc1ccc(/C=C2\SC(=S)N(CCC(=O)Nc3cccc(O)c3)C2=O)cc1 = 2
CCN(CC)Nc1nc(N/N=C/c2ccccc2O)nc(Nc2ccccc2)n1 = 0.1

Report Ki for every entry below.
1. COc1cccc(NC(=O)CCN2C(=O)/C(=C/c3ccccc3O)SC2=S)c1
2. O=C(CCN1C(=O)/C(=C/c2cccc(F)c2)SC1=S)Nc1ccccc1O

Solution:
1. 10
2. 7.6

###

System: Human immunodeficiency virus 1
test summary: Antiviral activity against HIV-1 NL4-3 infected in human H9 cells assessed as reduction in viral replication at MOI of 0.03 measured after 48 hrs by Bright-Glo Luciferase Assay
Type: functional, organism-based
condition context: Human immunodeficiency virus 1, NL4-3, H9, 48 h
measurement label: EC50 (nM)
One number for each entry, in nM.

Exercise: Entry O=C(O)c1ccccc1C(=O)Nc1nnc(-c2ccc(O)cc2)s1 needs its EC50 filled in; supply it.
Solution: 2800

###

Test system: dengue virus type 2
test summary: Antiviral activity against DENV-2 New Guinea C infected in human Huh-7 cells assessed as reduction in viral replication
Format: functional, organism-based
measurement label: pEC50
Numbers only, as −log10 of the molar value.

Exercise: Entry CCCCc1cn(-c2ccc(NC(=O)Nc3ccccc3C)cc2)nn1 needs its pEC50 filled in; supply it.
Solution: 5.59

###

Tested on: Human immunodeficiency virus 1
test summary: Antiviral activity against recombinant HIV-1 infected in CD4+ human HeLa cells assessed as reduction in viral replication
Type: functional, organism-based
condition context: Human immunodeficiency virus 1, HeLa
Would you kindly list EC50 for each of these compounds?

Observe how each entry below is paired with its result.
OCCc1cc(Nc2ccc(F)cc2)nc(N/N=C/c2ccccc2O)n1 = 6.5 µM
CC(=O)Nc1ccc(/C=N/Nc2nc(Nc3ccccc3)nc(Nc3ccccc3)n2)cc1 = 2 µM

Exercise: Entry O=C(CCN1C(=O)/C(=C/c2ccccc2O)SC1=S)Nc1cccc(F)c1 needs its EC50 filled in; supply it.
Solution: 7.5 µM

###

test summary: Half life in mouse administered intraperitoneally
Assay type: ADME
condition context: in vivo, route ip
measurement label: half-life (h)
Give bare numbers, in h.

COc1ccc(Cn2c3ncnc4c(ncn4Cc4ccc(OC)cc4)c-3nc2=O)cc1 = 7

Then there is this compound:
Exercise: Entry CCCCc1cn(-c2ccc(NC(=O)Nc3ccccc3C(F)(F)F)cc2)nn1 needs its half-life filled in; supply it.
Solution: 5

###

assayed system: ATP-dependent RNA helicase DDX3X (Homo sapiens)
test summary: Inhibition of DDX3X (unknown origin) helicase activity
measurement label: pKi
Answers are plain numbers, as −log10 of the molar value.

Exercise: Entry Cc1ccccc1NC(=O)Nc1ccc(-n2cc(CO)nn2)cc1 needs its pKi filled in; supply it.
Solution: 4.76

###

test summary: Selectivity index, ratio of CC50 for PBMC (unknown origin) to EC50 for HIV-1 NL4-3 infected in PBMC (unknown origin)
Type: toxicity
condition context: read-out: Ratio CC50/EC50
measurement label: selectivity ratio
One number for each entry.

Exercise: Entry CCCCc1cn(-c2ccc(NC(=O)Nc3ccccc3C)cc2)nn1 needs its selectivity ratio filled in; supply it.
Solution: 91

###

Would you kindly list CC50 at 48 h for each of these compounds?
test summary: Cytotoxicity against hamster BHK-21 cells assessed as reduction in cell viability at MOI of 0.01 incubated for 48 hrs by plaque formation assay
Type: toxicity, cell-based, Mesocricetus auratus

Cc1ccccc1NC(=O)Nc1cccc([N+](=O)[O-])c1 = > 50 µM

Then there is this compound:
Exercise: Entry CCCCc1cn(-c2ccc(NC(=O)Nc3ccccc3C)cc2)nn1 needs its CC50 at 48 h filled in; supply it.
Solution: > 50 µM

###

System: Hepatitis C virus
test summary: Antiviral activity against HCV-1 infected in human LucUbiNeo-ET cells assessed as reduction in viral replication incubated for 2 days by luminometry
Format: functional, organism-based, Hepacivirus hominis
condition context: genotype 1, LucUbiNeo-ET, 48 h
measurement label: EC50 (nM)
Give bare numbers, in nM.

CCCCc1cn(-c2ccc(NC(=O)Nc3ccccc3C)cc2)nn1 = 970

Then there is this molecule:
Exercise: Entry CC(C)Cc1cn(-c2ccc(NC(=O)Nc3ccc4cnccc4c3)cc2)nn1 needs its EC50 filled in; supply it.
Solution: 900

###

Would you kindly list log10(Ki) for each of these compounds?
assayed system: ATP-dependent RNA helicase DDX3X (Homo sapiens, UniProt O00571)
test summary: Binding affinity to DDX3X (unknown origin) assessed as inhibition constant
Could you please treat all values as log10 of Ki in nM?

O=C1S/C(=C\c2c(NCCO)nc3ccccn3c2=O)C(=O)N1CCc1ccccc1 = 2.30
CC(=O)Nc1ccc(/C=N/Nc2nc(Nc3ccccc3)nc(NN3CCOCC3)n2)cc1 = 3.34
COc1ccc(/C=C2\SC(=S)N(CCC(=O)Nc3ccccc3OC)C2=O)cc1 = 4.04
COc1cc(/C=C2\SC(=S)N(CCC(=O)Nc3ccccc3Cl)C2=O)cc(OC)c1OC = 2.00
Oc1ccccc1/C=N/Nc1nc(NCc2ccccc2)nc(NN2CCOCC2)n1 = 2.78
O=C(NCCN1C(=O)/C(=C/c2ccccc2O)SC1=S)c1cccc(Br)c1 = 3.62
O=C(CCN1C(=O)/C(=C/c2ccccc2O)SC1=S)Nc1cccc(F)c1 = 2.48
O=C(CCN1C(=O)/C(=C/c2cccc(Br)c2)SC1=S)Nc1cccc(O)c1 = 4.95
CC(=O)Nc1ccc(/C=N/Nc2nc(Nc3ccccc3)nc(Nc3ccccc3)n2)cc1 = 2.48

Exercise: Determine reported log10(Ki) for O=C(NCCN1C(=O)/C(=C/c2ccccc2O)SC1=S)c1cccc(F)c1 ; test system: ATP-dependent RNA helicase DDX3X (Homo sapiens, UniProt O00571).
Solution: 3.63
